What efflux ratio at 2 h, 1 µM was measured for each of the following?
# tgt: P-gp (MDR1) (Homo sapiens (Human), UniProt P08183)
# Sequence (P08183 whole entry, species assumed): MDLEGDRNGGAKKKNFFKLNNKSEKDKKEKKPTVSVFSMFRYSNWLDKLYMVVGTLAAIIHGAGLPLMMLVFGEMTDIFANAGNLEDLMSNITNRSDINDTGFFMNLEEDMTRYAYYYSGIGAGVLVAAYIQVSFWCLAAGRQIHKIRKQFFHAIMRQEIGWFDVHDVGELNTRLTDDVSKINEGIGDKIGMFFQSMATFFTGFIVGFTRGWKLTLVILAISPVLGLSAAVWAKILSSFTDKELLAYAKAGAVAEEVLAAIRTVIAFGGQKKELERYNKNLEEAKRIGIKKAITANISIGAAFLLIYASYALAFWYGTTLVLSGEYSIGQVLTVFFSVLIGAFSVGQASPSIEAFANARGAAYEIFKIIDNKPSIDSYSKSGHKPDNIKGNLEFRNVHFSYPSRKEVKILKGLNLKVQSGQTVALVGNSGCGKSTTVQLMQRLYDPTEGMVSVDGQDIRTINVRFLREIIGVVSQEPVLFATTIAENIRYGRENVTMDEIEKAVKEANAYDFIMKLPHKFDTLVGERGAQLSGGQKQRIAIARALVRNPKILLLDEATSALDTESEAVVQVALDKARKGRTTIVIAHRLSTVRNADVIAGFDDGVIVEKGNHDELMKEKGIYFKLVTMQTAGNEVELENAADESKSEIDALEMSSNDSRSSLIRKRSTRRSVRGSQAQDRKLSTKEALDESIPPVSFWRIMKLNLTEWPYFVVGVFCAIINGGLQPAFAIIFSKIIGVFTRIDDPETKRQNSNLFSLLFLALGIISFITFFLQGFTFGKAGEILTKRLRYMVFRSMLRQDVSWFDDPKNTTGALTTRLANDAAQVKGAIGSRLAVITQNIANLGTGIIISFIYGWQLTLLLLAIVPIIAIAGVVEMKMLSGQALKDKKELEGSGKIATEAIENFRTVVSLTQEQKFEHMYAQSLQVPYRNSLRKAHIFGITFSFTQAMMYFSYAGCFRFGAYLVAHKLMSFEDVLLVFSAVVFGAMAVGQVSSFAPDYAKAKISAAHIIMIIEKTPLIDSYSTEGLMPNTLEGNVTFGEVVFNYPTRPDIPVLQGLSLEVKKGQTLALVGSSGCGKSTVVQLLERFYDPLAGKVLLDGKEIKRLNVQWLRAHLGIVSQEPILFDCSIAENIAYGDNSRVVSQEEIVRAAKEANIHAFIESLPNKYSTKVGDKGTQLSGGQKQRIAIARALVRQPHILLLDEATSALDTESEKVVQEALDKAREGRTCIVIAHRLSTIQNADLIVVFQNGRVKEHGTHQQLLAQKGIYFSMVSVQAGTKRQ
# assay.method.text: MDR1 LLC-PK1 permeability assay: efflux ratio
# run.conditions: pig, LLC-PK1
Would you mind answering with just the numeric figure?

Incoming: Recorded efflux ratio at 2 h, 1 µM for CCCS(=O)(=O)Nc1cc(C)cc(Oc2ccc3ncn(C)c(=O)c3c2C)c1F , please?
Outgoing: 1.57

Incoming: What do you have for Cc1c(Nc2c(F)ccc(NS(=O)(=O)CCCF)c2F)ccc2ncn(C)c(=O)c12 ?
Outgoing: 3.92

Incoming: What do you have for CCCS(=O)(=O)Nc1cc(Cl)cc(Oc2ccc3ncn(C)c(=O)c3c2C)c1F ?
Outgoing: 1.73

Incoming: What do you have for COCCS(=O)(=O)Nc1ccc(F)c(Nc2ccc3ncn(C)c(=O)c3c2C)c1Cl ?
Outgoing: 1.4

Incoming: What do you have for CCCS(=O)(=O)Nc1ccc(F)c(Nc2ccc3ncn(-c4cccnc4)c(=O)c3c2C)c1Cl ?
Outgoing: 2.26

Incoming: What do you have for Cc1c(Nc2c(F)c(F)cc(NS(=O)(=O)CCCF)c2Cl)ccc2ncn(C)c(=O)c12 ?
Outgoing: 1.61

Incoming: What do you have for Cc1c(Nc2cccc(NS(=O)(=O)CCCF)c2Cl)ccc2ncn(C)c(=O)c12 ?
Outgoing: 1.14

Incoming: What do you have for CCCS(=O)(=O)Nc1ncc(Cl)c(Nc2ccc3ncn(C)c(=O)c3c2C)c1Cl ?
Outgoing: 1.87
